For each record, write down the corresponding relative viability.
- Test system: NCI-H460
- test-name: relative viability (nuclei count vs DMSO), 5 days (fraction); higher = more cells survive
- conditions: first compound 0.6325 µM
Could you respond with only the numeric value?

# value lookup — system NCI-H460, readout relative viability, item COCC1(CO)C(=O)C2CCN1CC2 (stereo not drawn) [PRIMA-1MET] + C[C@@H](Oc1cc(-c2cnn(C3CCNCC3)c2)cnc1N)c1c(Cl)ccc(F)c1Cl [Crizotinib] (partner 1 µM) 0.579

Next up: COCC1(CO)C(=O)C2CCN1CC2 (stereo not drawn) [PRIMA-1MET] + COc1cc2c(Oc3ccc(NC(=O)C4(C(=O)Nc5ccc(F)cc5)CC4)cc3F)ccnc2cc1OCCCN1CCOCC1 [Foretinib] (partner 0.25 µM) 0.949

Next up: COCC1(CO)C(=O)C2CCN1CC2 (stereo not drawn) [PRIMA-1MET] + CS(=O)(=O)CCNCc1ccc(-c2ccc3ncnc(Nc4ccc(OCc5cccc(F)c5)c(Cl)c4)c3c2)o1 [Lapatinib] (partner 2 µM) 0.826
